System: NCI-H522
method.summary: NCI tumour cell line growth inhibition, 48 h
Activity calls are given as the source filed them. Cut-off read from the data, not from the text of the source: active = GI50 up to about 1.1 µM and inactive = higher. Where a SMILES comes first, the peptide text is derived from it. The star is where a group is joined. Boc = CC(C)(C)OC(=O)*
Please go through the items and note down their GI50.

# count of solved cases: 4
O=C1NC(=S)NC(=O)C1C(c1ccccc1[N+](=O)[O-])C1C(=O)NC(=S)NC1=O.c1ccncc1 = > 100 µM (inactive)
CN(C)CC(/C(Cc1ccccc1)=N\NC(=O)c1ccncc1)c1ccccc1 (centres undefined) = 27.4 µM (inactive)
COc1ccc2[nH]cc(C(=O)C(=O)NC34CC5CC(CC(C5)C3)C4)c2c1 = 36.7 µM (inactive)
CN1CCN(C2=C(Cl)C3(OCCS3)C(F)(F)C2(F)F)CC1 (centres undefined) = > 100 µM (inactive)

Hi, could you look up GI50 for each item in my list?
1. COC(=O)[C@@H](NS(=O)(=O)CC12CCC(CC1)C2(C)C)C(C)(C)C
2. CCN(CC)c1ccc(/C=C2/C[N+](C)(C)C/C(=C/c3ccc(N(CC)CC)cc3)C2=O)cc1
3. CC(C)(O)C1CC[C@]2(C)CC[C@]3(C)[C@H](CC[C@@H]4[C@@]5(C)CC[C@H](O)C(C)(C)[C@@H]5CC[C@]43C)[C@@H]12 (some centres undefined)
4. COC(=O)[C@H](Cc1ccc(O)cc1)NC(=O)[C@H](Cc1ccc(O)cc1)NC(=O)OC(C)(C)C (Boc-Tyr-Tyr-OMe)
5. COc1ccc(C(=O)c2cc(OC)c(OC)c(OC)c2)cc1OC
6. COC(=O)C(CC(=O)Nc1ccc(Cl)c(Cl)c1)C(=O)C(=O)NC1C2CC3CC(C2)CC1C3 (centres undefined)
7. CCC1=C(C(C)=O)[C@@H]2CCCCC(C(=O)OC)[C@@H]2C1=O (some centres undefined)

1: > 100 µM (inactive); 2: 2.06 µM (inactive); 3: 29.1 µM (inactive); 4: 28 µM (inactive); 5: 3.63 µM (inactive); 6: > 100 µM (inactive); 7: 88.1 µM (inactive)

Hi, could you look up GI50 for each item in my list?
1. BrP(NC1CCCCCC1)(c1ccccc1)(c1ccccc1)c1ccccc1
2. O=C(N[C@@H]1C=CCC[C@@H]1c1ccccc1)OCc1ccccc1
3. Cc1c(C(=O)/C=C/c2cccc3ccccc23)[n+]([O-])c2ccccc2[n+]1[O-]
4. CC1=NC(=Cc2cccc(Cl)c2)C(=O)N1n1c(-c2ccccc2)nc2ccccc2c1=O

["2.23 µM (inactive)", "14.8 µM (inactive)", "5.9 µM (inactive)", "17.5 µM (inactive)"]
